Target: T1, human MASP-3 (construct not stated) (human)
T1 construct: also called MASP-3 antigen
T1 chain: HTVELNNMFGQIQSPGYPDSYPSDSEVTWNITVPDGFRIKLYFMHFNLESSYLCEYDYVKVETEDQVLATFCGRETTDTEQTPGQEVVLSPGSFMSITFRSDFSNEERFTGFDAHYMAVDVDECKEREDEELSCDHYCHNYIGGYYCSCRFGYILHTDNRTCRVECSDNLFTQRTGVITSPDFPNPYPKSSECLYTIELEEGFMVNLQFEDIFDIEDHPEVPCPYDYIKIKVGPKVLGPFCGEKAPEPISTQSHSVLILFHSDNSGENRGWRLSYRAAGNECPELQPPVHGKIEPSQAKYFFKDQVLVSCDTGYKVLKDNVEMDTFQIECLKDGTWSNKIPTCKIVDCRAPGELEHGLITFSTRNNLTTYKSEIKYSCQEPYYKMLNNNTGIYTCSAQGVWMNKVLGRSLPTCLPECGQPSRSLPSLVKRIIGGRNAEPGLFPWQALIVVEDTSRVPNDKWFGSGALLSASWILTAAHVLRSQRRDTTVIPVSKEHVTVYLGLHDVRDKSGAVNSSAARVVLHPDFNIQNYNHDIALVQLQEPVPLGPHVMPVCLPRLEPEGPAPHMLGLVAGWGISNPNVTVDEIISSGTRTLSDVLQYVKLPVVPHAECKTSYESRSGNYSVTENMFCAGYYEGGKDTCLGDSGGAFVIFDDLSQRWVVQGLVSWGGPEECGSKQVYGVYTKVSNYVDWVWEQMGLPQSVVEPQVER
Assay: ELISA, monovalent Fab
assayReadout: pEC50
Scale: pEC50 equals -log10([C]), with [C] in mol/L.

Q) What value of measured pEC50 is listed for h13B1_9-1 Fab (VH-9 and VL-1) (Fab, V domains shown, Humanized monovalent Fab) VH: QVQLVQSGAEVKKPGASVKVSCKASGYTFTGKWIEWVRQAPGQGLEWIGEILPGTGSTNYAQKFQGRATFTADSSTSTAYMELSSLRSEDTAVYYCLRSEDVWGQGTLVTVSS VL: DIVMTQSPDSLAVSLGERATINCKSSQSLLNSRTRKNYLAWYQQKPGQPPKLLIYWASTRESGVPDRFSGSGSGTDFTLTISSLQAEDVAVYYCKQSYNIPTFGQGTKVEIKR ?
A) 10.00
